measured.target: T1, 4H2611-AA
T1 chain: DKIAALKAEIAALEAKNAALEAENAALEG
protocol.text: two-hybrid library CCmax;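 also: natural log of median RNA to DNA barcode read ratio; higher means stronger binding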
applied.conditions: mean of both orientations
Exercise: for every item that follows, state its recorded interaction score.
Reply: number alone, nothing else.

QUERY: Consider the binder shown here: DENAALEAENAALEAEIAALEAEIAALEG [4H1153-AA] What is its recorded interaction score?
RESULT: -1.92

QUERY: Consider the binder shown here: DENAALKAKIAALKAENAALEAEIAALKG [4H1874-AA] What is its recorded interaction score?
RESULT: -1.33

QUERY: Consider the binder shown here: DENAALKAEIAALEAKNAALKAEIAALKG [4H1594-AA] What is its recorded interaction score?
RESULT: -1.7

QUERY: Consider the binder shown here: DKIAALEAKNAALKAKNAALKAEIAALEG [4H2553-AA] What is its recorded interaction score?
RESULT: -1.68

QUERY: Consider the binder shown here: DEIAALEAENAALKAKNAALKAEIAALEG [4H249-AA] What is its recorded interaction score?
RESULT: -1.99

QUERY: Consider the binder shown here: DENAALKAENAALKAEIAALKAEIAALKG [4H1738-AA] What is its recorded interaction score?
RESULT: -1.52

Values compiled from paper PMC10397247.
